# MEASURED_TARGET: VpMCM (V. parvula MCM) (Veillonella parvula, UniProt A0A124EFR6)
# Sequence (A0A124EFR6 entry or part of it): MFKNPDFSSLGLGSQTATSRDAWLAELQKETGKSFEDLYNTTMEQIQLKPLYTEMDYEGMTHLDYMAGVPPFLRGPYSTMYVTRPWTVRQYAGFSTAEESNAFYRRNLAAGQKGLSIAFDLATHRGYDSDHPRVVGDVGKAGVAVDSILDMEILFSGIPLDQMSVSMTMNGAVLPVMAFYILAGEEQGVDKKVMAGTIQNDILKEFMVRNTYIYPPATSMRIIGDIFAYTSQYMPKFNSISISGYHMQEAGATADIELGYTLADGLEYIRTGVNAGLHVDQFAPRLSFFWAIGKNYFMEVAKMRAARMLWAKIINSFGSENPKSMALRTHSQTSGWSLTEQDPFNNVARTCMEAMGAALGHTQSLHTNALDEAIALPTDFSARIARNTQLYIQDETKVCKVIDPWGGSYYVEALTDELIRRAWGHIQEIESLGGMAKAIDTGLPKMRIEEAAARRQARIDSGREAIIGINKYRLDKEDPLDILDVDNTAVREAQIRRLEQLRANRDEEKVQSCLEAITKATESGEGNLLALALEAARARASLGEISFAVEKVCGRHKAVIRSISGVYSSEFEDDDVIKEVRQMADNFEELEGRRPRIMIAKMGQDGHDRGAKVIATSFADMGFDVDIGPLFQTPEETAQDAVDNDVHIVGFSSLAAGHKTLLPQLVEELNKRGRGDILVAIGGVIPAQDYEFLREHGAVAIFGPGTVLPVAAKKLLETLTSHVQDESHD
# ASSAY_TEXT: Fluorescence binding assay, VpMCM
# CONDITIONS_USED: fitted curve, error = standard error of the curve fit; equimolar α and β subunits

>  <COMPOUND>
C/C1=C2/[N-][C@H]([C@H](CC(N)=O)[C@@]2(C)CCC(=O)NC[C@@H](C)OP(=O)([O-])O[C@H]2[C@@H](O)[C@@H](n3cnc4nc(C)nc(N)c43)O[C@@H]2CO)[C@]2(C)N=C(/C(C)=C3N=C(/C=C4N=C1[C@@H](CCC(N)=O)C\4(C)C)[C@@H](CCC(N)=O)[C@]\3(C)CC(N)=O)[C@@H](CCC(N)=O)[C@]2(C)CC(N)=O.[CH2-][C@H]1O[C@@H](n2cnc3c(N)ncnc32)[C@H](O)[C@@H]1O.[Co+3] [Ado[2-MeAde]Cba, 2-Methyladeninylcobamide]

>  <Kd (nM)>
1500

$$$$

====

Below: a set of entries, each annotated with reported pKd.
# MEASURED_TARGET: SmMCM (methylmalonyl-CoA mutase from S. meliloti) (Rhizobium meliloti, UniProt O86028)
# Construct: made in house; host or cells: E. coli BL21(DE3)pLysS
# Sequence (O86028 2-712): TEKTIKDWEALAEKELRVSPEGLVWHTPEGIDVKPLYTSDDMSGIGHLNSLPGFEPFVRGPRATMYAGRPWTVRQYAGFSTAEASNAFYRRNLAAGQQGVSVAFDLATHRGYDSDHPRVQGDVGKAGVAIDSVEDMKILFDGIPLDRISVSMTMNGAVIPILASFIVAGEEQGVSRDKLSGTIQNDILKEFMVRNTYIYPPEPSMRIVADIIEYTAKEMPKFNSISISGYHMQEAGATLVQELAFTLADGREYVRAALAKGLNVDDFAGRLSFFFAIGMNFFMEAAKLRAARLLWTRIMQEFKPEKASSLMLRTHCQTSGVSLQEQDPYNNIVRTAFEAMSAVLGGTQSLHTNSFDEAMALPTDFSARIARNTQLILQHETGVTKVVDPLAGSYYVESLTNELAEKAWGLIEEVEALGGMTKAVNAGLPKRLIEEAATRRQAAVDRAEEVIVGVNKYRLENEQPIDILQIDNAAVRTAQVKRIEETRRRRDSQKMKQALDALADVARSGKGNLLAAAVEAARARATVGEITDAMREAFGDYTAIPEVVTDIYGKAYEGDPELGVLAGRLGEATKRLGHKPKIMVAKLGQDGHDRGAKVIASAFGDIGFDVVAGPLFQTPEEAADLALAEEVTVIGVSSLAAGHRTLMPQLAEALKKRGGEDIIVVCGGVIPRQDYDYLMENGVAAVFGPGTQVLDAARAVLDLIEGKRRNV
# ASSAY_TEXT: biochemical
# Assay type: binding, Sinorhizobium meliloti
# CONDITIONS_USED: SmMCM 0.2 μM, pH 7.5, 30°C; average and standard deviation for three or more independent experiments; n. d. = binding too weak to determine Kd
pKd: −log10 of the molar value.

>  <COMPOUND>
C/C1=C2/[N-][C@H]([C@H](CC(N)=O)[C@@]2(C)CCC(=O)NC[C@@H](C)OP(=O)([O-])O[C@H]2[C@@H](O)[C@@H](n3cnc4nc(C)nc(N)c43)O[C@@H]2CO)[C@]2(C)N=C(/C(C)=C3N=C(/C=C4N=C1[C@@H](CCC(N)=O)C\4(C)C)[C@@H](CCC(N)=O)[C@]\3(C)CC(N)=O)[C@@H](CCC(N)=O)[C@]2(C)CC(N)=O.[CH2-][C@H]1O[C@@H](n2cnc3c(N)ncnc32)[C@H](O)[C@@H]1O.[Co+3] [Ado[2-MeAde]Cba, 2-Methyladeninylcobamide]

>  <pKd>
5.77

$$$$
>  <COMPOUND>
C/C1=C2/[N-][C@H]([C@H](CC(N)=O)[C@@]2(C)CCC(=O)NC[C@@H](C)OP(=O)([O-])O[C@H]2[C@@H](O)[C@@H](n3cnc4cc(C)ccc43)O[C@@H]2CO)[C@]2(C)N=C(/C(C)=C3N=C(/C=C4N=C1[C@@H](CCC(N)=O)C\4(C)C)[C@@H](CCC(N)=O)[C@]\3(C)CC(N)=O)[C@@H](CCC(N)=O)[C@]2(C)CC(N)=O.[CH2-][C@H]1O[C@@H](n2cnc3c(N)ncnc32)[C@H](O)[C@@H]1O.[Co+3] [Ado[5-MeBza]Cba, 5-Methylbenzimidazolylcobamide]

>  <pKd>
7.00

$$$$
>  <COMPOUND>
C/C1=C2/[N-][C@H]([C@H](CC(N)=O)[C@@]2(C)CCC(=O)NC[C@@H](C)OP(=O)([O-])O[C@H]2[C@@H](O)[C@@H](n3cnc4cccc(N)c43)O[C@@H]2CO)[C@]2(C)N=C(/C(C)=C3N=C(/C=C4N=C1[C@@H](CCC(N)=O)C\4(C)C)[C@@H](CCC(N)=O)[C@]\3(C)CC(N)=O)[C@@H](CCC(N)=O)[C@]2(C)CC(N)=O.[CH2-][C@H]1O[C@@H](n2cnc3c(N)ncnc32)[C@H](O)[C@@H]1O.[Co+3] [Ado[7-AmBza]Cba, 7-Aminobenzimidazolylcobamide]

>  <pKd>
6.15

$$$$
